Numbers sourced from patent US11084826B2.

OUTCOME_MEASURE: melting point (°C)
Supply the numeric figure in °C, leaving out any unit text.

Check out these entries, answers already filled in.
CCc1cc(C(=O)N2CCCCC[C@H]2C)nc2cc(-c3ccc(N4CC[C@](C)(C(=O)O)C4)cc3F)nn12; 179.2
CCc1cc(C(=O)N2CCCCCC2C)nc2cc(-c3ccc4c(c3)ncn4C)nn12 (centres unmarked); 115
CCc1cc(C(=O)N2CCCCCC2C)nc2cc(-c3ccc(C#N)cc3F)nn12 (centres unmarked); 95
C[C@@H]1CCCCCN1C(=O)c1cc(C2CC2)n2nc(-c3ccc(C4C[C@H]4C(=O)O)cc3F)cc2n1 (single isomer, unassigned); 245.75
C[C@@H]1CCCCCN1C(=O)c1cc(C2CCC2)n2nc(-c3ccc4c(c3F)OCC(C(=O)O)=C4)cc2n1; 230.94

So what's the measured melting point for this one? CCc1cc(C(=O)N2CCCCCC2C)nc2cc(-c3ccc(C(=O)NCc4ccco4)cc3F)nn12 (centres unmarked)
168

Could you share which melting point value was measured for CCc1cc(C(=O)N2CCCCC[C@H]2C)nc2cc(-c3ccc(N4CC=C(C(=O)O)CC4)cc3F)nn12 ?
277.45

// returns reported melting point for input C[C@@H]1c2ccccc2CCN1C(=O)c1cc(C2(C)CC2)n2nc(-c3ccc(N4CC[C@H](C(=O)O)C4)cc3F)cc2n1
162.08

Name the reported melting point value associated with the compound CCc1cc(C(=O)N2CCCCC[C@H]2C)nc2cc(-c3ccc(N4CC[C@H](C(=O)O)C4)cc3F)nn12
205.8

Entry CC1c2ccsc2CCN1C(=O)c1cc(C2(C)CC2)n2nc(-c3ccc(-c4ccc(C(=O)O)cn4)cc3F)cc2n1 (racemic) : reported melting point = ?
203.36

###

This section presents compounds with their documented melting point values.

Which melting point is listed for CCc1cc(C(=O)N2CCCCCC2C)nc2cc(-c3ccc(NC(=O)NC4CC4)cc3)nn12 (stereo not shown) [Compound B8] ?
240 to 245 °C

Fill blank: measured melting point of the compound CC(C)Cc1cc(C(=O)N2CCCCC[C@H]2C)nc2cc(-c3ccc(-c4ccc(C(=O)O)cn4)cc3F)nn12 [Compound F41] is ____.
197.2 °C

Would you mind telling me what melting point value was observed for CCc1cc(C(=O)N2CCc3sccc3[C@H]2C)nc2cc(-c3ccc4c(c3F)OCC(C(=O)O)=C4)nn12 (racemic) [Compound F66] ?
256.54 °C

Recorded melting point for CCc1cc(C(=O)N2CCCCCC2C)nc2cc(-c3ccc(N4C(=O)CCC4=O)cc3F)nn12 (stereo not shown) [Compound E26] , please?
190 to 195 °C

###

OUTCOME_MEASURE: melting point (°C)
Number only, in °C; omit the unit.

C[C@@H]1CCCCCN1C(=O)c1cc(C2(C)CC2)n2nc(-c3ccc(OCC(=O)O)cc3F)cc2n1 (racemic); 204.93
C[C@@H]1CCCCCN1C(=O)c1cc(C2(C)CC2)n2nc(-c3ccc4c(c3F)OCC(C(=O)O)=C4)cc2n1 (racemic); 261.88

Next:
Fill in: melting point of CCc1cc(C(=O)N2CCCCC[C@H]2C)nc2cc(-c3ccc(-n4cc(C(=O)O)c(Cl)n4)cc3F)nn12 is ___
145.75
